# ASSAY_PROTOCOL: Plasma protein binding mouse
# Format: in vitro ADME
# ASSAY_SETUP: CD-1, mouse
PROPERTY_NAME: fraction unbound

* CCN(CC)c1cc(C)c2cc(NC(=O)c3cccc(OC)c3)ccc2n1 | < 0.01
* CCOC(=O)c1cnc2ccc(OC)cc2c1NCc1ccccc1 | < 0.01
* CCN1CCN(c2cc(C)c3cc(NC(=O)c4ccc(OC)c(OC)c4)ccc3n2)CC1 | < 0.05
* COc1cc2cc(C(=O)Nc3ccccc3)c(N)nc2cc1OC | > 0.05

====

NAD+ values for the compounds below.
# Test system: P. falciparum 3D7 trophozoites
# ASSAY_PROTOCOL: Metabolomic fingerprint profiling LC-MS
# Type: cell-based, Plasmodium falciparum
# ASSAY_SETUP: metabolite NAD+, S2 Table Metabolomics
PROPERTY_NAME: NAD+

- Cc1cc(Nc2ccc(Cl)cc2)n2nc(C(F)(F)F)nc2n1: 0.00935
- Cc1ccc(N2C(=O)C3C(C2=O)C2(c4ccccc4)C(=O)C3(c3ccccc3)C(c3ccccc3)=C2c2ccccc2)cc1 (centres unmarked): -0.2488
- Cc1cc(C=C2SC(=Nc3ccccc3)N(C3CCCC3)C2=O)c(C)n1-c1ccc(Cl)cc1: -0.2173
- Cc1ccc(-c2cc3c(SCC(=O)Nc4cc(C(F)(F)F)ccc4Cl)nccn3n2)cc1: 0.1566
- COc1ccc(-n2ccnc2SCC(=O)Nc2cc(C)ccc2C)c(OC)c1: 0.1657
- CCOC(=O)c1cnc2ccc(CC)cc2c1O: 0.1229
- COc1ccc2c(c1)OC(O)(C(F)(F)C(F)(F)F)CC2=O (centres unmarked): -0.1711
- CCOC(=O)c1cnc2c(C)cc(C)cc2c1Nc1ccc(OC)c(OC)c1: -0.3043
- COc1cccc(C=Cc2nc(=O)c3ccccc3o2)c1OC: 0.3862
- Cc1cc(C)cc(Nc2cc(C)nc3nc(C(F)(F)F)nn23)c1: -0.2042
- COc1ccc(-c2c(C)nn3c(N)c(C#N)cnc23)cc1OC: 0.9649
